- Species: Rattus norvegicus
- PROTOCOL SUMMARY: Open TG-GATES - Regimen: Single
- Format: toxicity, organism-based, Sprague-Dawley
- Design: regimen Single, gender Male, age 6 weeks
- EXPERIMENTAL CONDITIONS: in vivo, po, 1000 mg/kg, 6 h, tissue Kidney, route gavage, dose level High
QUANTITY KIND: KIDNEY_R (g)

{"columns": ["COMPOUND", "UNIT", "OBSERVED"],
 "data": [
  ["COC1=CC(=O)C[C@@H](C)[C@]12Oc1c(Cl)c(OC)cc(OC)c1C2=O", "g", 1],
  ["COc1ccc2[nH]c([S+]([O-])Cc3ncc(C)c(OC)c3C)nc2c1 (stereo not given)", "g", 1.1],
  ["CCOC(=O)CCC(=O)O[C@H]1[C@H](O[C@@H]2[C@@H](C)[C@H](O[C@H]3C[C@@](C)(OC)[C@@H](O)[C@H](C)O3)[C@@H](C)C(=O)O[C@H](CC)[C@@](C)(O)[C@H](O)[C@@H](C)C(=O)[C@H](C)C[C@@]2(C)O)O[C@H](C)C[C@@H]1N(C)C [ERYTHROMYCIN ETHYLSUCCINATE]", "g", 1.1],
  ["NC(N)=Nc1nc(CSCCC(N)=NS(N)(=O)=O)cs1", "g", 1],
  ["CC(C)OC(=O)C(C)(C)Oc1ccc(C(=O)c2ccc(Cl)cc2)cc1 [FENOFIBRATE]", "g", 0.8]
]}
